molecular target: full-length beta-Catenin (Uniprot ID P35222) (Homo sapiens); construct: 10 nM full-length beta-Catenin (Uniprot ID P35222); assay: Fluorescence polarization IC50 (beta-catenin / 5FAM-TCF4 10-53 competition); assay type: binding; settings: read-out: beta-Catenin FP IC50
measured-quantity: IC50
Answer with the number, then the unit.

CC(=O)N1CCC[C@]12CC=CCCCC1(CCCC=CCCCOC(=O)N3CC[C@@](C(=O)N[C@@H](Cc4ccsc4)C(=O)N[C@@H](Cc4csc5ccccc45)C(=O)N[C@@H](CO)C(N)=O)(C3)NC(=O)[C@H](CC(C)C)NC(=O)[C@H](Cc3ccccc3)NC(=O)[C@H](C)NC(=O)[C@H](C)NC(=O)[C@H](CN(CC(=O)O)CC(F)(F)F)NC(=O)[C@H](CC(=O)O)NC1=O)NC(=O)[C@H](CC(C)(C)C)NC(=O)[C@H](CC(=O)O)NC2=O (some centres unmarked) [I-961]
0.357 µM

// next item, IC50 requested
With full-length beta-Catenin (Uniprot ID P35222) (Homo sapiens) as the test system, CC(=O)N1CCC[C@]12CC=CCCCC1(CCCC=CCCCOC(=O)N3CC[C@@](C(=O)N[C@@H](Cc4ccsc4)C(=O)N[C@@H](Cc4csc5ccccc45)C(=O)N[C@@H](CCC(N)=O)C(N)=O)(C3)NC(=O)[C@H](CC(N)=O)NC(=O)[C@H](Cc3ccccc3)NC(=O)[C@H](CCCCNC(=O)c3ccc(CN4CCOCC4)cc3)NC(=O)[C@H](C)NC(=O)[C@H](CC(=O)O)NC(=O)[C@H](CC(=O)O)NC1=O)NC(=O)[C@H](CC(C)(C)C)NC(=O)[C@H](CC(=O)O)NC2=O (some centres unmarked) showed IC50 of 0.016 µM

====

Biological target: full-length beta-Catenin (Uniprot ID P35222) (Homo sapiens, UniProt P35222)
Construct: 10 nM full-length beta-Catenin (Uniprot ID P35222)
Sequence (P35222 1-781): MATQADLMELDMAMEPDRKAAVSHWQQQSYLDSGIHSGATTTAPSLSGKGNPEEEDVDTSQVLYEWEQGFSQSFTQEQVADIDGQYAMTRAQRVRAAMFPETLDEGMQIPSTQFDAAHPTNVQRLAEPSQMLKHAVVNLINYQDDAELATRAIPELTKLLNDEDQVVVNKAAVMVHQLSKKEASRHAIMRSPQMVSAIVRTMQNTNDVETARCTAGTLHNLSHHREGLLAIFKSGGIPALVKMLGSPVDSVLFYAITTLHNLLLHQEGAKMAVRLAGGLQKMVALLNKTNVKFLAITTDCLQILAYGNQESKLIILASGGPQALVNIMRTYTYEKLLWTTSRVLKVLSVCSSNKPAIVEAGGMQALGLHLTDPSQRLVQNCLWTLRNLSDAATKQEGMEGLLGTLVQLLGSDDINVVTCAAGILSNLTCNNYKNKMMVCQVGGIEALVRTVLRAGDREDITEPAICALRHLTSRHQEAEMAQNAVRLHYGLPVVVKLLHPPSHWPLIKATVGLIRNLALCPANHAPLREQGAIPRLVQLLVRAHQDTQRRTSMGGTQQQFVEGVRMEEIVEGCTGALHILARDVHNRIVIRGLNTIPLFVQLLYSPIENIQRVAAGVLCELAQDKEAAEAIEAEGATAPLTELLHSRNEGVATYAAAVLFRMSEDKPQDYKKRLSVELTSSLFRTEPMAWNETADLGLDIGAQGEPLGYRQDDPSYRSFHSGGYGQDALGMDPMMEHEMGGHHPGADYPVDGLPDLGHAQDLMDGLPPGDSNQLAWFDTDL
Test: Fluorescence polarization IC50 (beta-catenin / 5FAM-TCF4 10-53 competition)
Type: binding
Settings: fluorescence polarization; read-out: beta-Catenin FP IC50
measured-quantity: pIC50
// pIC50: -log10(molar conc.)

CC(=O)N1CCC[C@]12CC=CCCCC1(CCCC=CCCCOC(=O)N3CC[C@@](C(=O)N[C@@H](Cc4ccsc4)C(=O)N[C@@H](Cc4csc5ccccc45)C(=O)N[C@@H](CC(N)=O)C(=O)N[C@@H](CC(C)C)C(=O)N[C@@H](CC(C)C)C(=O)N[C@@H](CC(C)C)C(N)=O)(C3)NC(=O)[C@H](CC(C)C)NC(=O)[C@H](Cc3ccccc3)NC(=O)[C@H](C)NC(=O)[C@H](C)NC(=O)[C@H](Cc3cccc(C(=O)O)c3)NC(=O)[C@H](CC(=O)O)NC1=O)NC(=O)[C@H](CC(C)(C)C)NC(=O)[C@H](CC(=O)O)NC2=O (some centres unmarked) [I-2275]
6.93

// next item, pIC50 requested
Per the record, CC(=O)N1CCC[C@]12CC=CCCCC1(CCCC=CCCCCCC[C@@](C)(C(=O)N[C@@H](Cc3cccs3)C(=O)N[C@@H](Cc3csc4ccccc34)C(=O)N[C@@H](CCC(N)=O)C(N)=O)NC(=O)[C@H](CCO)NC(=O)[C@H](Cc3ccccc3)NC(=O)[C@H](C)NC(=O)[C@H](C)NC(=O)[C@H](CC(=O)O)NC(=O)[C@H](CC(=O)O)NC1=O)NC(=O)[C@H](CC(C)(C)C)NC(=O)[C@H](CC(=O)O)NC2=O (some centres unmarked) [I-1392] has pIC50 of 7.89

Cited source: patent US20240116985A1
